I'd be grateful if you could share measured Inhibition of PAD2: value at 40 µM inhibitor (0 µM: 74) for these entries.
Target: recombinant human PAD2 (human, UniProt Q9Y2J8 1-665)
Sequence (Q9Y2J8 whole entry): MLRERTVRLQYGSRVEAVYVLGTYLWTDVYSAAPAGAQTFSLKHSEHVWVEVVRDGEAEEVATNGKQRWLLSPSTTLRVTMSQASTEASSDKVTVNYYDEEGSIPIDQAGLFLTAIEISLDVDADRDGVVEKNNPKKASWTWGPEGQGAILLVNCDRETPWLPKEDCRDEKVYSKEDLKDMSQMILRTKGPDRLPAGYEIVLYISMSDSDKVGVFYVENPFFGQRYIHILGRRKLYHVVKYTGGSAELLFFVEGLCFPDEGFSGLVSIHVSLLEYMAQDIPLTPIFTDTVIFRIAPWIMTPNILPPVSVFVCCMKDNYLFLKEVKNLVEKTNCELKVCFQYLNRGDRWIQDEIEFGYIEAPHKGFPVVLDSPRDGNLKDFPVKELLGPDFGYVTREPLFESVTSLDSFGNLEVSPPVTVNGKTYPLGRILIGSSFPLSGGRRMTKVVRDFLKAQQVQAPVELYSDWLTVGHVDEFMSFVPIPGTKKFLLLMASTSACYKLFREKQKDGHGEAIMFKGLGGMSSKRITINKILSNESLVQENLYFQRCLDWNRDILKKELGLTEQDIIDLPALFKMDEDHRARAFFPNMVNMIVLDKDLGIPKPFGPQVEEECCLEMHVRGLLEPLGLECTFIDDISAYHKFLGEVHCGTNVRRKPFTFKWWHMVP
Test: cell-based or functional assay
Square brackets hold non-standard residues; d marks the D form. * marks the point of attachment. Orn(fluoroacetimidoyl) = N=C(CF)NCCC[C@H](N)C(=O)O; 2Naphthylsulfonyl = O=S(=O)(c1ccc2ccccc2c1)*; AEEA = NCCOCCOCC(=O)O
One number for each entry, in %.

Here's what some known entries look like.
{"BINDER": "Ac-KFD[Orn(fluoroacetimidoyl)]DFI[AEEA]-NH2 (SMILES CC[C@H](C)[C@H](NC(=O)[C@H](Cc1ccccc1)NC(=O)[C@H](CC(=O)O)NC(=O)[C@H](CCCNC(=N)CF)NC(=O)[C@H](CC(=O)O)NC(=O)[C@H](Cc1ccccc1)NC(=O)[C@H](CCCCN)NC(C)=O)C(=O)NCCOCCOCC(N)=O) [0837-13FA]", "ASSAY_RESULT": 20}
{"BINDER": "Ac-KFD[Orn(fluoroacetimidoyl)]DFI-NH2 (SMILES CC[C@H](C)[C@H](NC(=O)[C@H](Cc1ccccc1)NC(=O)[C@H](CC(=O)O)NC(=O)[C@H](CCCNC(=N)CF)NC(=O)[C@H](CC(=O)O)NC(=O)[C@H](Cc1ccccc1)NC(=O)[C@H](CCCCN)NC(C)=O)C(N)=O) [0743-58FA]", "ASSAY_RESULT": 15}
{"BINDER": "2Naphthylsulfonyl-KFD[Orn(fluoroacetimidoyl)]DFI-NH2 [0837-29FA]", "ASSAY_RESULT": 5}

Continue with the binder presented below.
input: I would be grateful if you could share the reported Inhibition of PAD2: value at 40 µM inhibitor (0 µM: 74) for 2Naphthylsulfonyl-KFD[Orn(fluoroacetimidoyl)]DFI[AEEA]-NH2 (SMILES CC[C@H](C)[C@H](NC(=O)[C@H](Cc1ccccc1)NC(=O)[C@H](CC(=O)O)NC(=O)[C@H](CCCNC(=N)CF)NC(=O)[C@H](CC(=O)O)NC(=O)[C@H](Cc1ccccc1)NC(=O)[C@H](CCCCN)NS(=O)(=O)c1ccc2ccccc2c1)C(=O)NCCOCCOCC(N)=O) [0837-27FA] .
output: 7

Hey, just so you know, these numbers are from patent US20110142868A1.
